System: MDA-MB-231 breast
Test: NCI tumour cell line growth inhibition, 48 h; in the data active = GI50 below about 0.43 µM; inactive = the rest
Choose one outcome from this list and give only that: active, inactive

Query: Assay outcome for "C=C1C(=O)O[C@H]2[C@H]1CC/C(COC(=O)OC/C1=C/CC[C@@]3(C)O[C@H]3[C@H]3OC(=O)[C@@H](CN(C)C)[C@@H]3CC1)=C\CC[C@@]1(C)O[C@@H]21" : what was it?
Reply: inactive

Query: Can you handle "COc1cc(C(=O)O[C@H](C(=O)NCCN(C)CCNC(=O)[C@@H](OC(=O)c2cc(OC)cc3c(C)cccc23)[C@]2(C)CO2)[C@]2(C)CO2)c2cccc(C)c2c1" next?
Reply: active

Query: Same thing, different compound: CN(C)CCCC1(c2ccc(F)cc2)OCc2cc(-c3cc4ccccc4s3)ccc21 (stereo unspecified)
Reply: inactive

Query: Could you do the same for "COc1ccc(NC(=O)c2sc3nc(C)c(C(=O)/C=C/c4cccc(OC)c4)cc3c2N)cc1" , please?
Reply: inactive

Query: Cool, now "COc1ccc(/C(C#N)=C/c2cc(OC)c(OC)c(OC)c2)cc1"
Reply: inactive

Query: Please answer likewise for CCC1(OC(=O)CN)C(=O)OCc2c1cc1n(c2=O)Cc2cc3ccccc3nc2-1 (stereo unspecified)
Reply: inactive

Query: Thanks! And "CC(C)c1cccc(O)c(=O)c1" ?
Reply: inactive

Query: What do you have for "Clc1ccc2nc(CI)c(CI)nc2c1" ?
Reply: inactive

Query: Would you kindly repeat that for "CC(C)C(=O)c1c(C(F)(F)F)n([O-])c2cc(F)c(F)cc2[n+]1=O" ?
Reply: active

Query: Please do the same for "CCCCCCCC(=O)SCC/C=C/[C@@H]1CC(=O)NCc2nc(cs2)C2=N[C@@](C)(CS2)C(=O)N[C@@H](C(C)C)C(=O)N1" as well.
Reply: active

Query: Next compound up: CC([C@H]1CC=C2C3CCC4=C[C@@H](N(C)C)CC[C@]4(C)C3CC[C@@]21C)N(C)C (stereo partly specified)
Reply: inactive

Query: Then what about the compound "COC(=O)c1c2c(c(C)[n+]([O-])c1C)C(=O)C=C(NCc1cccc(Cl)c1)C2=O" ?
Reply: active

Query: Could you do the same for "CCCCCCCCCCCCCCCCOP(=O)([O-])OCC[N+](C)(C)C" , please?
Reply: inactive

Query: Please do the same for "O=C(CI)Nc1ccc(O)c2ccccc12" as well.
Reply: inactive

Query: Now consider "O=C1C=Cc2c1ccc1ccccc21" and answer again.
Reply: inactive

Query: Would you kindly repeat that for "CC(=O)O[C@H]1C(=O)[C@@]2(C)[C@H]([C@H](OC(=O)c3ccccc3)[C@]3(O)C[C@H](OC(=O)[C@H](OC(=O)OC[C@H]4COC(C)(C)O4)[C@@H](NC(=O)c4ccccc4)c4ccccc4)C(C)=C1C3(C)C)[C@]1(OC(C)=O)CO[C@@H]1C[C@@H]2O" ?
Reply: active

Query: Same read-out for "O=C(Nc1ccc(F)cc1)Nc1ccc(Br)c(C(F)(F)F)c1" ?
Reply: inactive

Query: Now try O=CN1N=C(c2cccc(Nc3ccnc4cc(Cl)ccc34)c2)CC1c1ccccc1 (stereo unspecified) .
Reply: inactive

Query: Thanks! And "O=C(c1ccccc1)c1c(C(F)(F)F)n([O-])c2cc(C(F)(F)F)ccc2[n+]1=O" ?
Reply: inactive

Query: Could you do the same for "C[n+]1c2ccccc2nc2ccccc21" , please?
Reply: active

Query: # repeat for "CCCCCCCCCCCCCC[n+]1ccc(C(N)=O)cc1"
Reply: inactive
